tested on: MAP4K3; conditions: concentration: 1 μM, replicates: in singlicate; n = 1;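 also: KINOMEscan kinase panel screen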
Measured Parameter: %Inh (%)
Write the answer as a number in %, unit excluded.

Summary for this molecule, `Clc1cccc(-c2nc(Nc3ccncc3)c3ccccc3n2)c1` : %Inh is 0

// field: %Inh; key: `N#Cc1ccc(Oc2ccc(Nc3ncnc4cc[nH]c34)cc2Cl)cc1` ; value = 24

# %Inh (molecule: `CNc1nccc(-c2c(-c3ccc(F)cc3)ncn2C2CCN(C)CC2)n1` ) is 0

Data point: `Cn1ccc2ncnc(Nc3ccc(Oc4cccc(Cl)c4)c(Cl)c3)c21` ; %Inh = 0

Form: molecule = `C[C@H]1CC[C@@H](C(=O)Nc2ccccc2)CN1c1cc(-c2ccc3c(N)n[nH]c3c2)nc(N)n1` ; %Inh = 0

Value of %Inh reported for the molecule `Clc1cc(Nc2ncnc3cc[nH]c23)ccc1OCc1ccccn1` is 0

%Inh reading for `CSc1nn2c(=O)cc(N3CCOCC3)nc2n1Cc1cccc(Cl)c1Cl` : 42

Entry `c1ccc(-c2ccc3c(-c4ccnc(Nc5ccc6c(c5)OCCO6)n4)cnn3n2)cc1` — recorded %Inh = 4

%Inh reported for this molecule `Cl.c1ccc(Cn2ncc3cc(Nc4ncnc5ccccc45)ccc32)cc1` : 0

For `Cl.O=S(=O)(c1cccc(F)c1)c1ccc(Nc2ncnc3cc(Br)sc23)cc1Cl` the molecule record lists %Inh as 0

Form: molecule = CCCc1ccc(S(=O)(=O)NC2CCN(c3ccnc(Nc4ccc(OC)cc4)n3)C2)cc1 (centres unmarked) ; %Inh = 0

Sure, the documented %Inh for `COc1ccc(NC(=O)c2ccc(-c3cc(-c4nnc(C)o4)ccc3C)cc2)cc1` is 0

Field %Inh (entry `Nc1nc(-c2ccc3c(N)n[nH]c3c2)cc(N2CCC[C@@H](C(=O)Nc3ccccc3)C2)n1.O=C(O)C(F)(F)F.O=C(O)C(F)(F)F` ) reads 0

Lab book: %Inh of `CC(C)(C)c1ccc(-n2cnc3c(N)ncnc32)cc1` noted as 5

# molecule `FC(F)(F)c1ccc(-c2nn3ncccc3c2-c2ccnc(Nc3cccc(C(F)(F)F)c3)n2)cc1` ; its %Inh = 0

`COc1cc2c(Nc3cccc(NC(=O)c4ccccc4)c3)ncnc2cc1OCCCN1CCOCC1` yielded %Inh of 9

Value of %Inh reported for the molecule `Fc1ccc(Nc2nccc(-c3c(-c4ccc(Cl)cc4)nn4ncccc34)n2)cc1F` is 0

Field %Inh (entry `COC(=O)c1c(-c2ccccc2)c2cc(Cl)ccc2c(=O)n1Cc1ccc(S(C)(=O)=O)cc1` ) reads 13

Notebook: `COc1cc2ncnc(Nc3ccc(OCc4ccccc4Br)c(Cl)c3)c2cc1OC.Cl` , %Inh read as 11

The measured %Inh associated with `CCn1c(-c2ccncc2)nc2cnccc21` reads 0

====

Please go through the items and note down their %Inh.
test system: LYN; conditions: concentration: 1 μM, replicates: in singlicate; n = 1
Provide the reading as a plain figure in %.

Notebook: `CCn1c(-c2ccncc2)nc2cnccc21` , %Inh read as 19

// %Inh lookup, compound = `COc1cc2c(Nc3cccc(NC(=O)c4ccccc4)c3)ncnc2cc1OCCCN1CCOCC1` , result: 90.3

Entry `CS(=O)(=O)CCNCc1ccc(-c2ccc3ncnc(Nc4ccc(OCc5ccccc5)c(Cl)c4)c3c2)o1.Cl` ; %Inh = 0

Form: compound = `Cc1cccc(-c2nc(Nc3ccc4[nH]nnc4c3)c3ccccc3n2)n1` ; %Inh = 0

Entry `Nc1nc(-c2ccc3c(N)n[nH]c3c2)cc(N2CCCCC2)n1` — recorded %Inh = 0

Kindly note the recorded %Inh for `Fc1cccc(COc2ccc(Nc3ncnc4cc[nH]c34)cc2Cl)c1` , which is 0

The recorded %Inh for `Nc1nc(-c2ccccn2)c(-c2ccnc3ccccc23)s1` is 0

Data point: `O=C(Nc1ccccc1)Nc1ccc(Oc2ccc3nccn3n2)cc1` ; %Inh = 0
